test: chemical genetic growth profiling, strain panel (AID 1159580);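 also: tested at 20 µM; growth read once vehicle control cultures reached saturation at 30 °C; 1 = growth at the plate median or of vehicle wells; lower values mean less growth of the strain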; conditions: S. cerevisiae deletion strains, growth OD, locus YCL061C, strain MRC1, active compounds read low
The whole screen tested about 5,500 compounds, of which about 2,000 (36%) were called active. Another 18% or so got no clear call; they are omitted. The list shows a part of the results.
EXPERIMENTAL ENDPOINT: normalized growth
Answer field: number only, no words.

CN(C)[C@@H]1C(=O)C(C(=O)NCN2CCCC2)=C(O)[C@@]2(O)C(=O)C3=C(O)c4c(O)cccc4[C@@](C)(O)[C@H]3C[C@@H]12 ... 0.997
CC(=O)c1ccc(O)c(CC=C(C)C)c1 ... 0.965
COc1ccccc1OCC(O)CO (stereo unspecified) ... 1.03
Cc1onc(-c2c(Cl)cccc2Cl)c1NC(=O)O/N=C\c1ccc(N(C)C)cc1 ... 0.994
C=C1c2cccc(O)c2C(O)=C2C(=O)[C@]3(O)C(O)=C(C(N)=O)C(=O)[C@@H](N(C)C)[C@@H]3[C@@H](O)[C@H]12 ... 1.02

Now let's try a different one.
Problem: Hello, please tell me recorded normalized growth for this one: `CC(=O)c1cc(CC=C(C)C)c(O)c(CC=C(C)C)c1`
Result: 1.01
